Record form. Attribute: pIC50. Fill in for each entry.
- Target Or System: full-length beta-Catenin (Uniprot ID P35222) (Homo sapiens)
- Construct: 10 nM full-length beta-Catenin (Uniprot ID P35222)
- Test: Fluorescence polarization IC50 (beta-catenin / 5FAM-TCF4 10-53 competition)
- Assay type: binding
- Condition Label: fluorescence polarization; read-out: beta-Catenin FP IC50
Reminder that pIC50 is minus the log10 of a molar concentration.

Q. Notebook: pull reported pIC50 for full-length beta-Catenin (Uniprot ID P35222) (Homo sapiens), entry CC[C@H](C)[C@@H]1NC(=O)[C@H](CC(=O)O)NC(=O)[C@]2(CC=CCCCC3(CCCC=CCCCCCC[C@@](C)(C(=O)N[C@@H](Cc4ccccc4)C(=O)N[C@@H](Cc4csc5ccccc45)C(=O)N[C@@H](CCC(N)=O)C(N)=O)NC(=O)[C@H](CCC(N)=O)NC(=O)[C@H](Cc4ccccc4)NC(=O)[C@H](C)NC(=O)[C@H](C)NC(=O)[C@H](CN(CC)CC(=O)O)NC(=O)[C@H](CC(=O)O)NC3=O)NC1=O)CCCN2C(C)=O (some centres unmarked) [I-608]
A. 6.68

Q. Notebook: pull reported pIC50 for full-length beta-Catenin (Uniprot ID P35222) (Homo sapiens), entry CC[C@@H](C)[C@@H](NC(=O)[C@H](Cc1c[nH]cn1)NC(=O)[C@H](Cc1csc2ccccc12)NC(=O)[C@H](Cc1ccccc1)NC(=O)[C@]1(C)CCCCCCC=CCCCC2(CCCC=CC[C@]3(CCCN3C(C)=O)C(=O)N[C@@H](CC(=O)O)C(=O)N[C@@H](CC(C)C)C(=O)N2)C(=O)N[C@@H](CC(=O)O)C(=O)N[C@@H](CCC(=O)O)C(=O)N[C@@H](C)C(=O)N[C@@H](C)C(=O)N[C@@H](Cc2ccccc2)C(=O)N[C@@H](CC(N)=O)C(=O)N1)C(N)=O (some centres unmarked)
A. 6.80

Q. Notebook: pull reported pIC50 for full-length beta-Catenin (Uniprot ID P35222) (Homo sapiens), entry CC(=O)N[C@]1(C)CCCC=CCCCC2(CCCC=CCCCOC(=O)N3CC[C@@](C(=O)N[C@@H](Cc4ccccc4C(F)(F)F)C(=O)N[C@@H](Cc4csc5ccccc45)C(=O)N[C@@H](CCC(N)=O)C(N)=O)(C3)NC(=O)[C@H](CC(C)C)NC(=O)[C@H](Cc3ccccc3)NC(=O)[C@H](C)NC(=O)[C@H](C)NC(=O)[C@H](Cc3cccc(C(=O)O)c3)NC(=O)[C@H](CC(=O)O)NC2=O)NC(=O)[C@H](CC(C)(C)C)NC(=O)[C@H](CC(=O)O)NC1=O (some centres unmarked) [I-2564]
A. 6.59

Q. Notebook: pull reported pIC50 for full-length beta-Catenin (Uniprot ID P35222) (Homo sapiens), entry CC(=O)N1CCC[C@]12CC=CCCCC1(CCCC=CCCCOC(=O)N3CC[C@@](C(=O)N[C@@H](Cc4ccccc4)C(=O)N[C@@H](Cc4csc5ccccc45)C(=O)N[C@@H](CCCCN)C(N)=O)(C3)NC(=O)[C@H](CC(N)=O)NC(=O)[C@H](Cc3ccccc3)NC(=O)[C@H](C)NC(=O)[C@H](CCCCNC(C)C)NC(=O)[C@H](CCC(N)=O)NC(=O)[C@H](CC(=O)O)NC1=O)NC(=O)[C@H](CC1CCCCC1)NC(=O)[C@H](CC(N)=O)NC2=O (some centres unmarked)
A. 7.06

Q. Notebook: pull reported pIC50 for full-length beta-Catenin (Uniprot ID P35222) (Homo sapiens), entry CC(=O)N1CCC[C@]12CC=CCCCC1(CCCC=CCCCOC(=O)N3CC[C@@](C(=O)N[C@@H](Cc4ccccc4Cl)C(=O)N[C@@H](Cc4csc5ccccc45)C(=O)N[C@@H](CO)C(N)=O)(C3)NC(=O)[C@H](CC(C)C)NC(=O)[C@H](Cc3ccccc3)NC(=O)[C@H](C)NC(=O)[C@H](C)NC(=O)[C@H](Cc3cccc(C(=O)O)c3)NC(=O)[C@H](CC(=O)O)NC1=O)NC(=O)[C@H](CC(C)(C)C)NC(=O)[C@H](CC(N)=O)NC2=O (some centres unmarked)
A. 6.94

====

- Target Or System: full-length beta-Catenin (Uniprot ID P35222) (Homo sapiens, UniProt P35222)
- Construct: 10 nM full-length beta-Catenin (Uniprot ID P35222)
- Sequence (P35222 whole entry): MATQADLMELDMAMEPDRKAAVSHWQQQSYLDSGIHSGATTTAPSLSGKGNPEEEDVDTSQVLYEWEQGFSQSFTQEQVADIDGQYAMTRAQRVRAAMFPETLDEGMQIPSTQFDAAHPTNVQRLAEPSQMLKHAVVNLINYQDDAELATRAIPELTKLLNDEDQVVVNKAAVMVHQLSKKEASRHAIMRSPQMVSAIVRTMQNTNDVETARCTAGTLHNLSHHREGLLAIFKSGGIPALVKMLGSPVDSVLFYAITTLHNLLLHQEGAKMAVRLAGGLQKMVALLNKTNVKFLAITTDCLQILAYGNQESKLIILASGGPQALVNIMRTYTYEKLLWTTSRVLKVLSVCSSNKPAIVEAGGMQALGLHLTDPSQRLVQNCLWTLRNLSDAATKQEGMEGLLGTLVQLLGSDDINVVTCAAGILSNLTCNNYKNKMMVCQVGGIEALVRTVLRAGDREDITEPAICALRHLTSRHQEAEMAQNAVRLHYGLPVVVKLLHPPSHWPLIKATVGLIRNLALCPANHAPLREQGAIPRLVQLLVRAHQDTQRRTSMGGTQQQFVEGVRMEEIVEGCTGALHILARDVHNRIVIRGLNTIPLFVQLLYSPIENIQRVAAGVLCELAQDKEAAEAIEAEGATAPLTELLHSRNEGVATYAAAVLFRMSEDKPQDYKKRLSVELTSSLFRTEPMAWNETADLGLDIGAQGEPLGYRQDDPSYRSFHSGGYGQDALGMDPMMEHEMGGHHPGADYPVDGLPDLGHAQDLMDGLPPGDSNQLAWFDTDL
- Test: Fluorescence polarization IC50 (beta-catenin / 5FAM-TCF4 10-53 competition)
- Type: binding
- Condition Label: fluorescence polarization; read-out: beta-Catenin FP IC50
Attribute Measured: pIC50
Reminder that pIC50 is minus the log10 of a molar concentration.

Q. Form field: reported pIC50 of CC(=O)NCCCC[C@H](NC(=O)[C@H](Cc1csc2ccccc12)NC(=O)[C@H](Cc1ccsc1)NC(=O)[C@]12CCN(C1)C(=O)OCCCCCCCCC1(CCCCCC[C@]3(CCCN3C(C)=O)C(=O)N[C@@H](CC(=O)O)C(=O)N[C@@H](CC(C)(C)C)C(=O)N1)C(=O)N[C@@H](CC(=O)O)C(=O)N[C@@H](CN(CC(=O)O)CC(F)(F)F)C(=O)N[C@@H](C)C(=O)N[C@@H](C)C(=O)N[C@@H](Cc1ccccc1)C(=O)N[C@@H](CC(C)C)C(=O)N2)C(N)=O (stereo partly drawn)
A. 6.73

Q. Form field: reported pIC50 of CC(=O)N1CCC[C@]12CC=CCCCC1(CCCC=CCCCOC(=O)N3CC[C@@](C(=O)N[C@@H](Cc4ccsc4)C(=O)N[C@@H](Cc4csc5ccccc45)C(=O)N[C@@H](Cc4ccccc4)C(N)=O)(C3)NC(=O)[C@H]([C@@H](C)O)NC(=O)[C@H](Cc3ccccc3)NC(=O)[C@H](C)NC(=O)[C@H](C)NC(=O)[C@H]([C@@H](C)O)NC(=O)[C@H](CC(N)=O)NC1=O)NC(=O)[C@H](CC(C)(C)C)NC(=O)[C@H](CC(=O)O)NC2=O (stereo partly drawn) [I-2145]
A. 5.68

Q. Form field: reported pIC50 of CC(=O)N1CCC[C@]12CC=CCCCC1(CCCC=CCCCOC(=O)N3CC[C@@](C(=O)N[C@@H](Cc4ccccc4Cl)C(=O)N[C@@H](Cc4csc5ccccc45)C(=O)N[C@@H](CC(N)=O)C(N)=O)(C3)NC(=O)[C@H](C)NC(=O)[C@H](Cc3ccccc3)NC(=O)[C@H](C)NC(=O)[C@H](C)NC(=O)[C@H](Cc3cccc(C(=O)O)c3)NC(=O)[C@H](CC(=O)O)NC1=O)NC(=O)[C@H](CC(C)(C)C)NC(=O)[C@H](CC(=O)O)NC2=O (stereo partly drawn) [I-2036]
A. 7.72

Q. Form field: reported pIC50 of CC(=O)N1CCC[C@]12CCCCCCC1(CCCCCCCCOC(=O)N3CC[C@@](C(=O)N[C@@H](Cc4ccsc4)C(=O)N[C@@H](Cc4csc5ccccc45)C(=O)N[C@@H](Cc4ccccc4C(N)=O)C(N)=O)(C3)NC(=O)[C@H](CC(C)C)NC(=O)[C@H](Cc3ccccc3)NC(=O)[C@H](C)NC(=O)[C@H](C)NC(=O)[C@H](CN(CC(=O)O)CC(F)(F)F)NC(=O)[C@H](CC(=O)O)NC1=O)NC(=O)[C@H](CC(C)(C)C)NC(=O)[C@H](CC(=O)O)NC2=O (stereo partly drawn)
A. 6.60

Q. Form field: reported pIC50 of CC(=O)N1CCC[C@]12CC=CCCCC1(CCCC=CCCCOC(=O)N3CC[C@@](C(=O)N[C@@H](Cc4ccsc4)C(=O)N[C@@H](Cc4csc5ccccc45)C(=O)N[C@@H](CC(C)(C)C)C(N)=O)(C3)NC(=O)[C@H](CC(C)C)NC(=O)[C@H](Cc3ccccc3)NC(=O)[C@H](C)NC(=O)[C@H](CO)NC(=O)[C@H](Cc3cccc(C(=O)O)c3)NC(=O)[C@H](CC(=O)O)NC1=O)NC(=O)[C@H](CC(C)(C)C)NC(=O)[C@H](CC(=O)O)NC2=O (stereo partly drawn)
A. 7.21

Q. Form field: reported pIC50 of CC(=O)N1CCC[C@]12CC=CCCCC1(CCCC=CCCCOC(=O)N3CC[C@@](C(=O)N[C@@H](Cc4ccccc4)C(=O)N[C@@H](Cc4csc5ccccc45)C(=O)N[C@@H](CCC(N)=O)C(N)=O)(C3)NC(=O)[C@H](CC(C)C)NC(=O)[C@H](Cc3ccccc3)NC(=O)[C@H](C)NC(=O)[C@H](C)NC(=O)[C@H]([C@@H](C)O)NC(=O)[C@H](CC(N)=O)NC1=O)NC(=O)[C@H](C)NC(=O)[C@H](CC(=O)O)NC2=O (stereo partly drawn)
A. 5.42

Q. Form field: reported pIC50 of CC(=O)N1CCC[C@]12CC=CC[C@@](C)(C(=O)N[C@@H](CC(=O)O)C(=O)N[C@@H](CC(=O)O)C(=O)N[C@@H](C)C(=O)N[C@@H](C)C(=O)N[C@@H](Cc1ccccc1)C(=O)N[C@@H](CC(C)C)C(=O)NC(C)(C)C(=O)N[C@@H](Cc1ccsc1)C(=O)N[C@@H](Cc1csc3ccccc13)C(=O)N[C@@H](CCC(N)=O)C(N)=O)NC(=O)[C@H](CC(C)(C)C)NC(=O)[C@H](CC(=O)O)NC2=O
A. 6.63

Q. Form field: reported pIC50 of CC(=O)N1CCC[C@]12CC=CCCCC1(CCCC=CCCCOC(=O)N3CC[C@@](C(=O)N[C@@H](Cc4ccc(F)cc4)C(=O)N[C@@H](Cc4csc5ccccc45)C(=O)N[C@@H](C)C(N)=O)(C3)NC(=O)[C@H](CC(C)C)NC(=O)[C@H](Cc3ccccc3)NC(=O)[C@H](C)NC(=O)[C@H](C)NC(=O)[C@H](Cc3cccc(C(=O)O)c3)NC(=O)[C@H](CC(=O)O)NC1=O)NC(=O)[C@H](CC(C)(C)C)NC(=O)[C@H](CC(=O)O)NC2=O (stereo partly drawn)
A. 7.33

Q. Form field: reported pIC50 of CC(=O)N1CCC[C@]12CC=CCCCC1(CCCC=CCCCOC(=O)N3CC[C@@](C(=O)N[C@@H](Cc4ccsc4)C(=O)N[C@@H](Cc4csc5ccccc45)C(=O)N[C@@H](CCC(N)=O)C(N)=O)(C3)NC(=O)[C@H](CC(C)C)NC(=O)[C@H](Cc3ccccc3)NC(=O)[C@H](C)NC(=O)[C@H](C)NC(=O)[C@H](CCn3cc(-c4ccccc4C(=O)O)nn3)NC(=O)[C@H](CC(=O)O)NC1=O)NC(=O)[C@H](CC(C)(C)C)NC(=O)[C@H](CC(=O)O)NC2=O (stereo partly drawn) [I-2081]
A. 7.89

Entry source: patent US20240116985A1
